Cited source: patent US12234224B2

# experimental system: Recombinant human p70S6K kinase (Homo sapiens, UniProt P23443)
# Sequence (P23443 whole entry): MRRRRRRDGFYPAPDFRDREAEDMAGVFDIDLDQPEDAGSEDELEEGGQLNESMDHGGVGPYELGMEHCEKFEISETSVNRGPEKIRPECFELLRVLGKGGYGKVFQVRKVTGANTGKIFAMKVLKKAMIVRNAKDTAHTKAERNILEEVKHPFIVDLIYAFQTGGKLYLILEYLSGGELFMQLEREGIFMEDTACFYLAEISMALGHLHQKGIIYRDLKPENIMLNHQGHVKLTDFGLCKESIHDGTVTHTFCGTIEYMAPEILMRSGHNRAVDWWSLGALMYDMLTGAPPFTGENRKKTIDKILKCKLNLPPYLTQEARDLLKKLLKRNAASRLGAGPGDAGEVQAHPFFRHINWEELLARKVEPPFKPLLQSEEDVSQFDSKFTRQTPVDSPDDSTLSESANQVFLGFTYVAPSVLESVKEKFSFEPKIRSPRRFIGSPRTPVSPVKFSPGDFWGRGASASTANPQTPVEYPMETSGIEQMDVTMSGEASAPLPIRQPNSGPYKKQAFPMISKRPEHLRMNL
# assay details: S6K Enzymatic Inhibition Assay (HotSpot kinase assay; called S6K binding assay in Table 2)
# condition summary: IC50 class
pIC50: −log10 of the molar value.
endpoint: pIC50

C=C(c1ccccc1)n1cc(-c2ncnc(N)c2-c2ccc(Cl)cc2)cn1 : > 7.30
Nc1ncnc(-c2cnn(Cc3ccc(F)cc3)c2)c1-c1ccc(Cl)cc1 : > 7.30
Nc1cc(-c2cnn(Cc3ccc(C(F)(F)F)cc3)c2)c(Cl)cn1 : 5.00 to 6.30
Nc1ncnc(-c2cnn(Cc3ccc(C(F)(F)F)cc3)c2)c1-c1ccc(Cl)c(Cl)c1 : 5.00 to 6.30
Nc1ncnc(-c2cnn(Cc3cccc(F)c3)c2)c1-c1ccc(Cl)cc1 : > 7.30
Nc1ncnc(-c2cnn(C3CCCCO3)c2)c1-c1ccc(Cl)cc1 (centres unmarked) : 5.00 to 6.30

Ask | Consider the compound "Nc1ncnc(-c2cnn(Cc3ccc(C(F)(F)F)cc3)c2)c1-c1ccc(F)cc1" and give its measured pIC50.
Reply | > 7.30

Ask | Look up pIC50 for this compound: "COc1ccc(-c2c(N)ncnc2-c2cnn(Cc3ccc(C(F)(F)F)cc3)c2)cc1F"
Reply | > 7.30

Ask | Which pIC50 value belongs to "COc1cc(-c2c(N)ncnc2-c2cnn(Cc3ccc(C(F)(F)F)cc3)c2)ccc1Cl" ?
Reply | 5.00 to 6.30

Ask | Recorded pIC50 for "Cc1ccccc1-n1cc(-c2ncnc(N)c2-c2ccc(Cl)cc2)cn1" , please?
Reply | 6.30 to 7.30

Ask | Which pIC50 is reported for this compound? "Nc1ncnc(-c2cnn(Cc3ccc(F)cc3F)c2)c1-c1ccc(Cl)cc1"
Reply | > 7.30

Ask | Given "Nc1ncnc(-n2cc(Cc3ccccc3)cn2)c1-c1ccc(Cl)cc1" , state its recorded pIC50.
Reply | 6.30 to 7.30

Ask | Quick one: pIC50 for "Nc1ncnc(-c2cnn(Cc3ccc(C(F)(F)F)cc3)c2)c1-c1ccc(Cl)cc1" ?
Reply | > 7.30

Ask | Which pIC50 is listed for "Nc1ncnc(-c2cnn(Cc3ccc(C(F)(F)F)cc3)c2)c1-c1ccc(OC(F)(F)F)cc1" ?
Reply | 5.00 to 6.30

---

# experimental system: Recombinant human p70S6K kinase (Homo sapiens)
# Construct: purchased ThermoFisher Scientific PV3815
# assay details: S6K Enzymatic Inhibition Assay (HotSpot kinase assay; called S6K binding assay in Table 2)
# Format: biochemical
# condition summary: IC50 class
Each entry below carries its recorded IC50.

Ask | Enter reported IC50 observed with Recombinant human p70S6K kinase (Homo sapiens) for Nc1ncnc(-c2cnn(C(CO)c3ccccc3)c2)c1-c1ccc(Cl)cc1 (racemic) [Example 5]
Reply | < 50 nM

Ask | Provide value of IC50 for this record tested with Recombinant human p70S6K kinase (Homo sapiens): CN(C)C(=O)C(c1ccccc1)n1cc(-c2ncnc(N)c2-c2ccc(Cl)cc2)cn1 (racemic) [Example 9]
Reply | 50 to 500 nM

Ask | Please tell me: IC50 of Nc1ncnc(-c2cnn(Cc3ccccc3C(F)(F)F)c2)c1-c1ccc(Cl)cc1 [Example 17] , system Recombinant human p70S6K kinase (Homo sapiens)?
Reply | 50 to 500 nM

---

Each item that follows carries a reported pIC50.
# experimental system: Recombinant human p70S6K kinase (Homo sapiens, UniProt P23443)
# assay details: S6K Enzymatic Inhibition Assay (HotSpot kinase assay; called S6K binding assay in Table 2)
# condition summary: IC50 class
pIC50: −log10 of the molar value.

Below, 2 molecules whose answers are already recorded.
COc1ccc(-c2c(-c3cnn(Cc4ccc(C(F)(F)F)cc4)c3)ccnc2N)cc1 [Example 38] : > 7.30
CC(c1cccc(C(F)(F)F)c1)n1cc(-c2ncnc(N)c2-c2ccc(Cl)cc2)cn1 (racemic) [Example 3] : 6.30 to 7.30

Ask | Notebook: pull reported pIC50 for Recombinant human p70S6K kinase (Homo sapiens, UniProt P23443), entry Nc1ncnc(-c2cnn(Cc3ccccc3)c2)c1-c1ccc(Cl)cc1 [Example 1]
Reply | > 7.30

Ask | # get_value(readout= pIC50, system= Recombinant human p70S6K kinase (Homo sapiens, UniProt P23443)) for Nc1ncnc(-n2cc(C(=O)c3ccccc3)cn2)c1-c1ccc(Cl)cc1 [Example 22]
Reply | 5.00 to 6.30

Ask | Request - read-out pIC50 | tested on Recombinant human p70S6K kinase (Homo sapiens, UniProt P23443) | molecule Nc1cc(-c2cnn(Cc3ccc(C(F)(F)F)cc3)c2)ccn1 [Example 36]
Reply | 5.00 to 6.30

Ask | What reported pIC50 corresponds to COc1cc(-c2c(N)ncnc2-c2cnn(Cc3ccc(C(F)(F)F)cc3)c2)ccc1F [Example 33] on Recombinant human p70S6K kinase (Homo sapiens, UniProt P23443)?
Reply | 5.00 to 6.30

Ask | Return pIC50 measured with Recombinant human p70S6K kinase (Homo sapiens, UniProt P23443) given this molecule: Nc1ncnc(-c2cnn(-c3cccc(C(F)(F)F)c3)c2)c1-c1ccc(Cl)cc1 [Example 13]
Reply | 5.00 to 6.30

Ask | Request body: readout pIC50, system Recombinant human p70S6K kinase (Homo sapiens, UniProt P23443), query NC(=O)C(c1ccccc1)n1cc(-c2ncnc(N)c2-c2ccc(Cl)cc2)cn1 (racemic) [Example 8] . Return the value.
Reply | > 7.30

Ask | Please state recorded pIC50 (tested on Recombinant human p70S6K kinase (Homo sapiens, UniProt P23443)) of Nc1ncnc(-c2cnn(Cc3ccc(Cl)cc3)c2)c1-c1ccc(Cl)cc1 [Example 16]
Reply | > 7.30

Ask | Requested read-out pIC50, target or system Recombinant human p70S6K kinase (Homo sapiens, UniProt P23443), entry Cn1cc(-c2ncnc(N)c2-c2ccc(Cl)cc2)cn1 [Example 2]
Reply | 6.30 to 7.30

Ask | Lookup: pIC50 / Recombinant human p70S6K kinase (Homo sapiens, UniProt P23443) / Nc1ncnc(-c2cnn(Cc3ccc(C(F)(F)F)cc3)c2)c1-c1ccc(Cl)c(F)c1 [Example 27]
Reply | > 7.30

Ask | Report pIC50 for NCC(c1ccccc1)n1cc(-c2ncnc(N)c2-c2ccc(Cl)cc2)cn1 (racemic) [Example 6] tested on Recombinant human p70S6K kinase (Homo sapiens, UniProt P23443).
Reply | > 7.30

Ask | Form field: pIC50 recorded for Nc1ncnc(-c2cnn(-c3cccc(Cl)c3)c2)c1-c1ccc(Cl)cc1 [Example 12] with Recombinant human p70S6K kinase (Homo sapiens, UniProt P23443) (enter value)
Reply | 5.00 to 6.30

Ask | What is its pIC50 for Recombinant human p70S6K kinase (Homo sapiens, UniProt P23443)? Entry: Nc1ncnc(-c2cnn(Cc3ccccc3F)c2)c1-c1ccc(Cl)cc1 [Example 21]
Reply | > 7.30
